test system: MCF-10A; experiment: Ratio of IC50 for human MCF10A cells to IC50 for human PC3 cells
metric.name: Ratio IC50

Requested field: Ratio IC50. Item: "COc1cc(/C=C/C(=O)/C=C/c2cc(OC)cc(OC)c2)cc(OC)c1"
>=5

// lookup Ratio IC50 for "COc1cc(OC)c(/C=C/C(=O)/C=C/c2c(OC)cc(OC)cc2OC)c(OC)c1"
25

Please give the measured Ratio IC50 for this compound: "COc1cc(/C=C/c2cc(/C=C/c3ccc(O)c(OC)c3)[nH]n2)ccc1O"
>=5

Data request, read-out Ratio IC50, for "COc1cc(OC)c(OC)cc1/C=C/C(=O)/C=C/c1cc(OC)c(OC)cc1OC"
>=5

---

system: MDA-MB-231; test: Ratio of IC50 for human MCF10A cells to IC50 for human MDA-MB-231 cells
metric.name: Ratio IC50

Would you mind telling me what Ratio IC50 value was observed for "COc1cc(OC)c(/C=C/C(=O)/C=C/c2c(OC)cc(OC)cc2OC)c(OC)c1" ?
25

Which Ratio IC50 value is on record for "COc1cc(OC)c(OC)cc1/C=C/C(=O)/C=C/c1cc(OC)c(OC)cc1OC" ?
>=5

Reported Ratio IC50 for "COc1cc(/C=C/c2cc(/C=C/c3ccc(O)c(OC)c3)[nH]n2)ccc1O" : what is it?
>=5

Name the reported Ratio IC50 value associated with the compound "COc1cc(/C=C/C(=O)/C=C/c2cc(OC)cc(OC)c2)cc(OC)c1"
>=5

---

system: MCF7; assay: Ratio of IC50 for human MCF10A cells to IC50 for human MCF7 cells
metric.name: Ratio IC50

I am curious: what Ratio IC50 value has been reported for "COc1cc(/C=C/c2cc(/C=C/c3ccc(O)c(OC)c3)[nH]n2)ccc1O" ?
>=5

Which Ratio IC50 is listed for "COc1cc(/C=C/C(=O)/C=C/c2cc(OC)cc(OC)c2)cc(OC)c1" ?
>=5

Fill in: Ratio IC50 of "COc1cc(OC)c(OC)cc1/C=C/C(=O)/C=C/c1cc(OC)c(OC)cc1OC" is ___
>=5

Fill blank: measured Ratio IC50 of the compound "COc1cc(OC)c(/C=C/C(=O)/C=C/c2c(OC)cc(OC)cc2OC)c(OC)c1" is ____.
25

---

test system: PC-3; test: Antiproliferative activity against human PC3 cells after 72 hrs by MTT assay; type: functional, cell-based; conditions: PC-3, 72 h
Recorded log10 of IC50 by entry
Please be aware that the numbers have been log10-transformed from IC50 in µM.

Solved entries (count: 10):
Lookup: log10 of IC50 / PC-3 / "COc1ccc(/C=C/C(=O)/C=C(O)/C=C/c2ccc(OC)c(OS(N)(=O)=O)c2)cc1OS(N)(=O)=O"
0.87

Item: "COc1cc(/C=C/C(=O)/C=C/c2cc(OC)cc(OC)c2)cc(OC)c1" Test system: PC-3 Read-out: log10 of IC50 Value: ?
0.40

Report log10 of IC50 for "COc1cc(/C=C/C(O)=C/C(=O)/C=C/c2ccc(OC)c(OC)c2)ccc1O" tested on PC-3.
1.32

Entry "COc1cc(OC)c(OC)cc1/C=C/C(=O)/C=C/c1cc(OC)c(OC)cc1OC" , system PC-3: what log10 of IC50 was measured?
0.66

Any idea what log10 of IC50 came out for "COc1cc(OC)c(/C=C/C(=O)/C=C/c2c(OC)cc(OC)cc2OC)c(OC)c1" on PC-3?
0.32

Hello, I am looking for reported log10 of IC50 with PC-3 for "COc1cc(/C=C/c2cc(/C=C/c3ccc(O)c(OC)c3)n(C)n2)ccc1O" . Could you help?
1.21

What log10 of IC50 appears in the records for this molecule with PC-3? "COc1cc(/C=C/C(O)=C/C(=O)/C=C/c2ccc(OS(N)(=O)=O)c(OC)c2)ccc1O"
1.29

Look up log10 of IC50 with PC-3 for this molecule: "COc1cc(/C=C/C(=O)/C=C/c2cc(OC)c(O)c(OC)c2)cc(OC)c1O"
0.56

Tell me reported log10 of IC50 for "CC(=O)Oc1ccc(/C=C/C(=O)/C=C(O)/C=C/c2ccc(OC(C)=O)c(OC(C)=O)c2)cc1OC(C)=O" , tested with PC-3.
1.11

Lab note: need log10 of IC50 for "COc1cc(/C=C/c2cc(/C=C/c3ccc(O)c(OC)c3)[nH]n2)ccc1O" on PC-3, anyone have it?
0.75

---
Form field - read-out: log10 of IC50; system: PC-3; submitted item: "O=C(/C=C/c1ccc(O)cc1)CC(=O)/C=C/c1ccc(O)cc1"
1.44

Param readout = log10 of IC50; param system = PC-3; param query = "COc1ccc(/C=C/C(=O)/C=C/c2ccc(OC)c(O)c2)cc1O" ; response: value
0.77

I'm curious: which log10 of IC50 was measured for "COc1cc(/C=C/C(=O)/C=C(O)/C=C/c2ccc(OS(N)(=O)=O)c(OC)c2)ccc1OS(N)(=O)=O" tested on PC-3?
0.88

Provide value of log10 of IC50 for this record tested with PC-3: "COc1cc(/C=C/C(=O)/C=C/c2cc(OC)c(OS(N)(=O)=O)c(OC)c2)cc(OC)c1OS(N)(=O)=O"
0.38

Find log10 of IC50 (PC-3) for the entry "COc1ccc(/C=C/C(=O)/C=C(O)/C=C/c2ccc(OC)c(OC)c2)cc1OC"
0.77
